- Tested on: Staphylococcus epidermidis
- test_summary: MIC, broth microdilution
- Type: cell-based
- assay_setup: read-out: MIC
assay_endpoint: MIC

Input: Find the measured MIC: item `CC(C)(C)[Si](C)(C)c1cccc(CN(Cc2ccccn2)Cc2ccccn2)c1O` , target or system Staphylococcus epidermidis.
Output: ~4.2 µg/mL

***
Input: Find MIC (Staphylococcus epidermidis) for the entry `CC(C)(C)c1cccc(CN(Cc2ccccn2)Cc2ccccn2)c1O`
Output: 7.2 µg/mL

Input: Could you do the same for `CC(C)(C)[Si](c1ccccc1)(c1ccccc1)c1cccc(CN(Cc2ccccn2)Cc2ccccn2)c1O` , please?
Output: ~5.4 µg/mL

Input: Now consider `CC(C)[Si](c1cccc(CN(Cc2ccccn2)Cc2ccccn2)c1O)(C(C)C)C(C)C` .
Output: ~1.2 µg/mL
